System: Candida albicans
measurement-protocol: Antimicrobial activity against Candida albicans MTCC 227 after 72 hr by serial broth dilution method
Format: functional
details: MTCC 227, 72 h
experimental-endpoint: MIC (µg/mL)

Sample answers from the record:
O=C(c1ccncc1)N1N=C(c2nc3ccccc3[nH]2)CC1c1ccccc1 (stereo not given) : 250
O=C(c1ccncc1)N1N=C(c2nc3ccccc3[nH]2)CC1c1ccc(Cl)cc1 (stereo not given) : 1000
CN(C)c1ccc(C2CC(c3nc4ccccc4[nH]3)=NN2C(=O)c2ccncc2)cc1 (stereo not given) : 1000
COc1cc(C2CC(c3nc4ccccc4[nH]3)=NN2C(=O)c2ccncc2)ccc1O (stereo not given) : 500

I: O=C(c1ccncc1)N1N=C(c2nc3ccccc3[nH]2)CC1c1ccc(F)cc1 (stereo not given)
II: O=C(c1ccncc1)N1N=C(c2nc3ccccc3[nH]2)CC1c1ccccc1O (stereo not given)
Exercise: Compare I and II by numeric MIC and name the larger one. Respond with the label that goes with your answer.
Solution: I
(I: 500 µg/mL, II: 100 µg/mL)

----------
Test system: Escherichia coli
measurement-protocol: Antimicrobial activity against Escherichia coli MTCC 443 after 24 to 48 hr by serial broth dilution method
Type: functional
experimental-endpoint: MIC (µg/mL)

Would you please look over these solved cases?
COc1cc(C2CC(c3nc4ccccc4[nH]3)=NN2C(=O)c2ccncc2)ccc1O (stereo not given) : 250
O=C(c1ccncc1)N1N=C(c2nc3ccccc3[nH]2)CC1c1ccc(F)cc1 (stereo not given) : 500
COc1ccc(C2CC(c3nc4ccccc4[nH]3)=NN2C(=O)c2ccncc2)cc1 (stereo not given) : 100

P: O=C(c1ccncc1)N1N=C(c2nc3ccccc3[nH]2)CC1c1cccc(O)c1 (stereo not given)
Q: O=C(c1ccncc1)N1N=C(c2nc3ccccc3[nH]2)CC1c1ccc(O)cc1 (stereo not given)
Exercise: Higher MIC: P or Q ? Field: selected label. Fill in the label of the entry you choose.
Solution: P

----------
System: Candida albicans
measurement-protocol: Antimicrobial activity against Candida albicans MTCC 227 after 72 hr by serial broth dilution method
Assay type: functional
details: MTCC 227, 72 h
experimental-endpoint: MIC (µg/mL)

P: COc1ccc(C2CC(c3nc4ccccc4[nH]3)=NN2C(=O)c2ccncc2)cc1 (centres undefined)
Q: O=C(c1ccncc1)N1N=C(c2nc3ccccc3[nH]2)CC1c1ccc(O)cc1 (centres undefined)
R: O=C(c1ccncc1)N1N=C(c2nc3ccccc3[nH]2)CC1c1ccc(Br)cc1 (centres undefined)
Exercise: Rank the 3 compounds shown above by MIC, smallest number first. Labels, requested order.
Solution: Q, P, R

----------
Test system: Escherichia coli
measurement-protocol: Antimicrobial activity against Escherichia coli MTCC 443 after 24 to 48 hr by serial broth dilution method
Assay type: functional
experimental-endpoint: MIC (µg/mL)

Below are worked cases with known answers.
O=C(c1ccncc1)N1N=C(c2nc3ccccc3[nH]2)CC1c1ccc(Br)cc1 (stereo not given) : 250
Cc1ccc(C2CC(c3nc4ccccc4[nH]3)=NN2C(=O)c2ccncc2)cc1 (stereo not given) : 25
O=C(c1ccncc1)N1N=C(c2nc3ccccc3[nH]2)CC1c1cccc([N+](=O)[O-])c1 (stereo not given) : 100
O=C(c1ccncc1)N1N=C(c2nc3ccccc3[nH]2)CC1c1ccc([N+](=O)[O-])cc1 (stereo not given) : 50
CN(C)c1ccc(C2CC(c3nc4ccccc4[nH]3)=NN2C(=O)c2ccncc2)cc1 (stereo not given) : 250

A: O=C(c1ccncc1)N1N=C(c2nc3ccccc3[nH]2)CC1c1ccc(Cl)cc1 (stereo not given)
B: O=C(c1ccncc1)N1N=C(c2nc3ccccc3[nH]2)CC1c1ccccc1Cl (stereo not given)
C: O=C(c1ccncc1)N1N=C(c2nc3ccccc3[nH]2)CC1c1ccccc1 (stereo not given)
Exercise: Sort (3 compounds) by MIC: min first. In plain terms: list the labels in the order you were asked to.
Solution: B, C, A

----------
System: Candida albicans
measurement-protocol: Antimicrobial activity against Candida albicans MTCC 227 after 72 hr by serial broth dilution method
Type: functional
details: MTCC 227, 72 h
experimental-endpoint: MIC (µg/mL)

O=C(c1ccncc1)N1N=C(c2nc3ccccc3[nH]2)CC1c1ccc([N+](=O)[O-])cc1 (stereo unspecified) : 500
COC1=CC(=O)C[C@@H](C)[C@]12Oc1c(Cl)c(OC)cc(OC)c1C2=O : 500
O=C(c1ccncc1)N1N=C(c2nc3ccccc3[nH]2)CC1c1cccc([N+](=O)[O-])c1 (stereo unspecified) : 500
O=C(c1ccncc1)N1N=C(c2nc3ccccc3[nH]2)CC1c1cccc(O)c1 (stereo unspecified) : 500

P: O=C(c1ccncc1)N1N=C(c2nc3ccccc3[nH]2)CC1c1ccccc1Cl (stereo unspecified)
Q: Cc1ccc(C2CC(c3nc4ccccc4[nH]3)=NN2C(=O)c2ccncc2)cc1 (stereo unspecified)
Exercise: Which value of MIC is smaller, the one for P or the one for Q ? Your answer should be the label attached to the chosen record.
Solution: P
